- System: S. pneumoniae D39V;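 further: OD595 on entry to stationary phase over no-drug wells; at most 1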
- measurement.description: fitness (endpoint OD595 vs no drug) (fraction); higher = more growth
- run.parameters: first compound 0.21 µg/mL; partner 2 µg/mL
Entries and their fitness values follow.

[
  {
    "compound": "CC(=O)NC[C@H]1CN(c2ccc(N3CCOCC3)c(F)c2)C(=O)O1 [Linezolid] + CC1=C\\[C@@H](O)CC(=O)Cc2nc(co2)C(=O)N2CCC=C2C(=O)O[C@H](C(C)C)[C@H](C)/C=C/C(=O)NC\\C=C\\1 [Virginiamycin M1]",
    "measured": 0.769
  },
  {
    "compound": "CC(=O)NC[C@H]1CN(c2ccc(N3CCOCC3)c(F)c2)C(=O)O1 [Linezolid] + Cc1cc(NS(=O)(=O)c2ccc(N)cc2)no1 [Sulfamethoxazol]",
    "measured": 0.71
  },
  {
    "compound": "CC(=O)NC[C@H]1CN(c2ccc(N3CCOCC3)c(F)c2)C(=O)O1 [Linezolid] + COc1ccc(C[C@H](N)C(=O)N[C@H]2[C@@H](O)[C@H](n3cnc4c(N(C)C)ncnc43)O[C@@H]2CO)cc1 [Puromycin]",
    "measured": 0.685
  },
  {
    "compound": "CC(=O)NC[C@H]1CN(c2ccc(N3CCOCC3)c(F)c2)C(=O)O1 [Linezolid] + O=C1CN(/N=C/c2ccc([N+](=O)[O-])o2)C(=O)N1 [Nitrofurantoin]",
    "measured": 0.688
  }
]

--- query ---
Kindly note the recorded fitness for CC(=O)NC[C@H]1CN(c2ccc(N3CCOCC3)c(F)c2)C(=O)O1 [Linezolid] + CN[C@@H]1[C@H](O[C@H]2[C@H](O[C@H]3[C@H](O)[C@@H](O)[C@H](N=C(N)N)[C@@H](O)[C@@H]3N=C(N)N)O[C@@H](C)[C@]2(O)C=O)O[C@@H](CO)[C@H](O)[C@H]1O [Streptomycin] , which is 0.655
